System: OR2W1
Sequence (as listed by the source): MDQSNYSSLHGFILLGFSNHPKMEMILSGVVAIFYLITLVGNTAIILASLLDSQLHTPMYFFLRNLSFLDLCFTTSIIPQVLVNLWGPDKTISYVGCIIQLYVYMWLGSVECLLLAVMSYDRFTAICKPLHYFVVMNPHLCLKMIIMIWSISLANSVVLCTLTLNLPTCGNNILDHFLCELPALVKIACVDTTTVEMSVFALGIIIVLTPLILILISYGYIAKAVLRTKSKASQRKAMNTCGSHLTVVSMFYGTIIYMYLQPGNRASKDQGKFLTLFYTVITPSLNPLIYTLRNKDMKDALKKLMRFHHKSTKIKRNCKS
Conditions: stereoisomer not certain
Hello, when you answer, please use one of the following outcomes: active, inactive

Some solved entries appear below for comparison.
{"ITEM_SMILES": "CC(C)=CCCC(C)=CCO", "QUALITATIVE_LABEL": "inactive"}
{"ITEM_SMILES": "CCCCCCCC(=O)OCC", "QUALITATIVE_LABEL": "inactive"}
{"ITEM_SMILES": "SCCc1ccccc1", "QUALITATIVE_LABEL": "active"}
{"ITEM_SMILES": "CC(C)(S)CCOC=O", "QUALITATIVE_LABEL": "active"}
{"ITEM_SMILES": "CCOC(=O)c1ccccc1", "QUALITATIVE_LABEL": "active"}

Q) Record request — test call for CCOC(=O)C=Cc1ccccc1
A) active

Q) Record request — test call for CCCCCCCCCC(=O)OCC
A) active

Q) Record request — test call for CC(=O)c1ccc(C)cc1
A) active

Q) Record request — test call for C=C(C)c1ccc(C)cc1
A) active

---

Tested on: OR4F5 T141A Q293R
Conditions: stereoisomer not certain
METRIC: odorant receptor agonist call

Solved cases (5 shown):
{"COMPOUND": "Cc1cnc(C)c(C)n1", "odorant receptor agonist call": "inactive"}
{"COMPOUND": "CCCCCCC=CCCC=O", "odorant receptor agonist call": "inactive"}
{"COMPOUND": "CC1=C(O)C(=O)OC1C (stereo unspecified)", "odorant receptor agonist call": "inactive"}
{"COMPOUND": "CC1=C(O)C(=O)C(C)O1 (stereo unspecified)", "odorant receptor agonist call": "inactive"}
{"COMPOUND": "CC1=NC(C)C(C)S1 (stereo unspecified)", "odorant receptor agonist call": "inactive"}

Attention now turns to another entry.
Q) Tell me odorant receptor agonist call reported for CCC1OC(=O)C(O)=C1C (stereo unspecified)
A) inactive

---

Molecular target: OR51T1 (Homo sapiens) (UniProt Q8NGJ9)
Sequence (Q8NGJ9 whole entry): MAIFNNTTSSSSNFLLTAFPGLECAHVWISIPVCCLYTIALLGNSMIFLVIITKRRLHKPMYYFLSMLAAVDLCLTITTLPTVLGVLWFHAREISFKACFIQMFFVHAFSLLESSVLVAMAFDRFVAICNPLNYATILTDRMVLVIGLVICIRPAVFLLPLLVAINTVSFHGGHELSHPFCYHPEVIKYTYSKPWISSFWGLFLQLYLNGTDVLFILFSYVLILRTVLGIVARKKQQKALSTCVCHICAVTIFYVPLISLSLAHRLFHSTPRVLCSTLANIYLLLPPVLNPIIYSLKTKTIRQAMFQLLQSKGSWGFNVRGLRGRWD
Conditions: stereoisomer not certain
Hello, when you answer, please use one of the following outcomes: active, inactive

{"COMPOUND": "CC1CCCCCCCCCCCCC(=O)C1 (stereo unspecified)", "TARGET_OR_TEST_SYSTEM": "OR51T1 (Homo sapiens) (UniProt Q8NGJ9)", "QUALITATIVE_LABEL": "inactive"}
{"COMPOUND": "CCCCCC1CCCC(=O)O1 (stereo unspecified)", "TARGET_OR_TEST_SYSTEM": "OR51T1 (Homo sapiens) (UniProt Q8NGJ9)", "QUALITATIVE_LABEL": "inactive"}
{"COMPOUND": "CCCCC(S)C(C)CO (stereo unspecified)", "TARGET_OR_TEST_SYSTEM": "OR51T1 (Homo sapiens) (UniProt Q8NGJ9)", "QUALITATIVE_LABEL": "active"}
{"COMPOUND": "CCC(S)C(C)CO (stereo unspecified)", "TARGET_OR_TEST_SYSTEM": "OR51T1 (Homo sapiens) (UniProt Q8NGJ9)", "QUALITATIVE_LABEL": "inactive"}
{"COMPOUND": "CCCCCC(=O)C(C)C(C)=O (stereo unspecified)", "TARGET_OR_TEST_SYSTEM": "OR51T1 (Homo sapiens) (UniProt Q8NGJ9)", "QUALITATIVE_LABEL": "inactive"}

Q) Record request — test call for CC(CO)CS (stereo unspecified)
A) inactive

---

Target: OR1A1 (Homo sapiens)
Details: stereoisomer not certain
METRIC: odorant receptor agonist call

Solved cases (6 shown):
{"COMPOUND": "CCOC(=O)CCC(C)C", "odorant receptor agonist call": "inactive"}
{"COMPOUND": "CCCCCC(=O)C(C)C(C)=O (centres undefined)", "odorant receptor agonist call": "active"}
{"COMPOUND": "CCCCCCC=CC=O", "odorant receptor agonist call": "inactive"}
{"COMPOUND": "Cc1occc(=O)c1O", "odorant receptor agonist call": "inactive"}
{"COMPOUND": "COc1ccc(C)cc1O", "odorant receptor agonist call": "inactive"}
{"COMPOUND": "CCCCCCCCC1CCC(=O)O1 (centres undefined)", "odorant receptor agonist call": "inactive"}

Q) Recall the reported odorant receptor agonist call of CCC=CCCC=CCO on OR1A1 (Homo sapiens) and write it down.
A) inactive

Q) Recall the reported odorant receptor agonist call of CC(C)(S)CCOC=O on OR1A1 (Homo sapiens) and write it down.
A) inactive

Q) Recall the reported odorant receptor agonist call of O=C(c1ccccc1)c1ccccc1 on OR1A1 (Homo sapiens) and write it down.
A) active

---

Target: UniProt E9PZ66
Sequence (whole entry): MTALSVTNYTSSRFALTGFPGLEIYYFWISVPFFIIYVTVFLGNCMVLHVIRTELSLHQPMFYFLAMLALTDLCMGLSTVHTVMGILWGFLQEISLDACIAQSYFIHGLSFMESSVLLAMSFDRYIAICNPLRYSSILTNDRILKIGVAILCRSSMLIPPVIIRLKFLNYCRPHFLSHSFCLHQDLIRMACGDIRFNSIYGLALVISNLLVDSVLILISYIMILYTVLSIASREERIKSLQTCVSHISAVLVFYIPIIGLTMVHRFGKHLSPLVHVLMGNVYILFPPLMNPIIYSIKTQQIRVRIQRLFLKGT
Conditions: stereoisomer not certain
METRIC: odorant receptor agonist call

Solved cases (10 shown):
{"COMPOUND": "CCCCCCCCC=CC=O", "odorant receptor agonist call": "inactive"}
{"COMPOUND": "CC(=O)Oc1ccccc1", "odorant receptor agonist call": "inactive"}
{"COMPOUND": "CC=Cc1ccc(OC)cc1", "odorant receptor agonist call": "inactive"}
{"COMPOUND": "CSSCc1ccco1", "odorant receptor agonist call": "inactive"}
{"COMPOUND": "CCCCCOC(=O)CC", "odorant receptor agonist call": "inactive"}
{"COMPOUND": "CC(C)=CCCC(C)=CCOC(=O)C(C)C", "odorant receptor agonist call": "inactive"}
{"COMPOUND": "CCCCCCCCO", "odorant receptor agonist call": "inactive"}
{"COMPOUND": "CC(=O)C=CC1=C(C)CCCC1(C)C", "odorant receptor agonist call": "inactive"}
{"COMPOUND": "COc1cnccn1", "odorant receptor agonist call": "inactive"}
{"COMPOUND": "CCCCCC(C=O)=Cc1ccccc1", "odorant receptor agonist call": "inactive"}

Attention now turns to another entry.
Q) Recall the reported odorant receptor agonist call of Cc1occc1SSc1ccoc1C on UniProt E9PZ66 and write it down.
A) inactive

---

Test system: OR2C1
Sequence (as listed by the source): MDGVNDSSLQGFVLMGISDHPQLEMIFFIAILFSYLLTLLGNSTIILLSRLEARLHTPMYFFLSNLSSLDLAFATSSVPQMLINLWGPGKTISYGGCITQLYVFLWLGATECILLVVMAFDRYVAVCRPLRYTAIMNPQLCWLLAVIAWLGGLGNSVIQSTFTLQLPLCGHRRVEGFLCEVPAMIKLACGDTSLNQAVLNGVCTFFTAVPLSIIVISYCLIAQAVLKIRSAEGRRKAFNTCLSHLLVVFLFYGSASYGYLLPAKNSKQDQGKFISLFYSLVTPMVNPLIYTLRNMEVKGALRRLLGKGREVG
Conditions: stereoisomer not certain
Hello, when you answer, please use one of the following outcomes: Yes (active), No (inactive)

Some solved entries appear below for comparison.
{"COMPOUND": "Cc1cnc(C)c(C)n1", "QUALITATIVE_LABEL": "No"}
{"COMPOUND": "CCC1OC(C)=C(O)C1=O (stereo unspecified)", "QUALITATIVE_LABEL": "No"}
{"COMPOUND": "c1coc(CSSCc2ccco2)c1", "QUALITATIVE_LABEL": "No"}

Q) Record request — test call for O=C([O-])C[SH2+]
A) Yes

Q) Record request — test call for CCCC(S)CCOC(C)=O (stereo unspecified)
A) No

Q) Record request — test call for CCCCCCC=CCCC=O
A) No

---

Target: UniProt Q8VGC6
Sequence (Q8VGC6 as listed by the source): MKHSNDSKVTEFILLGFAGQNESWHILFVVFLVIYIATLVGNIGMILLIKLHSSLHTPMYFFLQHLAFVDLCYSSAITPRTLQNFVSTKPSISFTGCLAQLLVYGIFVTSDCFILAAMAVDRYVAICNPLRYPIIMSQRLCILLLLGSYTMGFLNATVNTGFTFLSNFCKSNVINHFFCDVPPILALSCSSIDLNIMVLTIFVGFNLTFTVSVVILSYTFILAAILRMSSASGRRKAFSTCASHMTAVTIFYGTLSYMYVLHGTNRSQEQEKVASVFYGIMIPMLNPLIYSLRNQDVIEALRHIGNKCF
Settings: stereoisomer not certain
Hello, when you answer, please use one of the following outcomes: active, inactive

Some solved entries appear below for comparison.
{"COMPOUND": "CCCCCCCCS", "QUALITATIVE_LABEL": "active"}
{"COMPOUND": "CC1CC=CCCCCCCCCCC(=O)C1 (configuration not stated)", "QUALITATIVE_LABEL": "inactive"}
{"COMPOUND": "CCC(C)O (configuration not stated)", "QUALITATIVE_LABEL": "inactive"}
{"COMPOUND": "O=C(O)CCCCCBr", "QUALITATIVE_LABEL": "inactive"}

Q) Record request — test call for CC12CCC(CC1=O)C2(C)C (configuration not stated)
A) inactive

Q) Record request — test call for CC(C)C12CCC(C)(CC1)O2
A) inactive

Q) Record request — test call for CC1CCC(C(C)C)C(=O)C1 (configuration not stated)
A) inactive

Q) Record request — test call for CCSCC
A) inactive

Q) Record request — test call for CCc1ncc(C)nc1CC
A) inactive

Q) Record request — test call for CSSCc1ccco1
A) inactive

Q) Record request — test call for O=C1CCOc2ccccc21
A) inactive

---

Molecular target: UniProt Q8VH10
Sequence (Q8VH10 as listed by the source): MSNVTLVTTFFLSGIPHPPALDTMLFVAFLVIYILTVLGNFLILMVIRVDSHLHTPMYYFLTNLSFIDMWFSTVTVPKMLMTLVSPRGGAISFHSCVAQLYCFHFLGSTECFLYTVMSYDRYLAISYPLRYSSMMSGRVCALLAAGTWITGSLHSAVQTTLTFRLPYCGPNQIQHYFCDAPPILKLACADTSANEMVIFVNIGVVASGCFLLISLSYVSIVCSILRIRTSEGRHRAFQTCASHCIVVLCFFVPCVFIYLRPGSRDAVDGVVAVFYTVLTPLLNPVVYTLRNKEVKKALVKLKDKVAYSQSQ
Conditions: stereoisomer not certain
METRIC: odorant receptor agonist call

Solved cases (5 shown):
{"ITEM_SMILES": "CCCCCCCO", "RESULT": "inactive"}
{"ITEM_SMILES": "CCCCCC=O", "RESULT": "inactive"}
{"ITEM_SMILES": "CCCCOC=O", "RESULT": "inactive"}
{"ITEM_SMILES": "CCCCCCCCS", "RESULT": "inactive"}
{"ITEM_SMILES": "CC(=O)OCC=C(C)C", "RESULT": "inactive"}

Q) Tell me odorant receptor agonist call reported for CCCCCCCCC(=O)O
A) inactive

Q) Tell me odorant receptor agonist call reported for CCCC(=O)C(C)=O
A) inactive
